Assay: qHTS for Inhibitors of Inflammasome Signaling: IL-1-beta AlphaLISA Primary Screen
Details: THP-1 LPS/ATP IL-1B secretion, 16 h; at 57.5 µM
About 17,000 (4.7%) of roughly 360,000 compounds were called active. About 5% were inconclusive and are not listed. No stated cut-off is given here; in the data, active means activity change below about -50%; inconclusive means mostly about -30% to -49%; inactive means weaker than that. The sample as a whole holds a higher share of actives than the screen did.
Possible outcomes: active, inactive

compound	class label
NS(=O)(=O)c1ccc(CNC(=O)c2cccc(Oc3ccccc3)c2)cc1	active
COc1ccc(-c2cc3ncccc3cn2)cc1	inactive
COc1cccc(C(O)c2nc(-c3ccc(C)c(C)c3)cs2)c1 (stereo unspecified)	inactive
COc1ccc(-c2csc(Nc3ccc(O)cc3)n2)cc1	active
COc1ccc(-c2csc(Nc3ccccn3)n2)cc1	active
COc1ccc(OC)c(Nc2nc(-c3ccc(O)c(O)c3)cs2)c1	active
